- assay.summary: Rat brain disposition after oral gavage
- Assay type: in vivo, male Sprague-Dawley rats
- run.parameters: male, Sprague-Dawley, plasma, oral 5 mg/kg, 1 h, mean ± stdev, n=3, read-out: Total plasma concentration
assay.endpoint: log10 of concentration at 1 h (log10 of the value in ng/mL)
Scale: decimal log of concentration at 1 h, concentration at 1 h in ng/mL.

Field: example entries. Status: answers known.
chemical.structure	log10 of concentration at 1 h
CCc1c2c(nn1-c1cccnc1C)OCCCn1nc(Cl)c3cnc(nc31)N2	2.47
Cc1cnc(C)c(-n2nc3c(c2C)Nc2ncc4c(Cl)nn(c4n2)CCCO3)c1	2.77
Cc1c2c(nn1-c1cccnc1OCF)OCCCn1nc(Cl)c3cnc(nc31)N2	2.09
Cc1c2c(nn1-c1cccnc1OC1CC1)OCCCn1nc(Cl)c3cnc(nc31)N2	2.05
CCc1c2c(nn1-c1cccnc1OC)OCCCn1nc(Cl)c3cnc(nc31)N2	0.60
Cc1c2c(nn1-c1cccnc1C(C)(F)F)OCCCn1nc(Cl)c3cnc(nc31)N2	2.45
Cc1nc(C)c(-n2nc3c(c2C)Nc2ncc4c(Cl)nn(c4n2)CCCO3)cc1F	2.16
Cc1ncc(F)cc1-n1nc2c(c1C)Nc1ncc3c(Cl)nn(c3n1)CCCO2	2.39
COc1nc(C)ccc1-n1nc2c(c1C)Nc1ncc3c(Cl)nn(c3n1)CCCO2	2.30
Cc1ccc(-n2nc3c(c2C)Nc2ncc4c(Cl)nn(c4n2)CCCO3)c(C)n1	2.82

Quick request: log10 of concentration at 1 h for each listed item, please.
1. COc1nc(C)ncc1-n1nc2c(c1C)Nc1ncc3c(Cl)nn(c3n1)CCCO2
2. COc1ncc(C)cc1-n1nc2c(c1C)Nc1ncc3c(Cl)nn(c3n1)CCCO2
3. Cc1c2c(nn1-c1cccnc1OC(F)F)OCCCn1nc(Cl)c3cnc(nc31)N2
4. COc1ncc(F)cc1-n1nc2c(c1C)Nc1ncc3c(Cl)nn(c3n1)CCCO2
5. COc1nccc(C)c1-n1nc2c(c1C)Nc1ncc3c(Cl)nn(c3n1)CCCO2

1. 1.93
2. 1.88
3. 1.28
4. 1.84
5. 0.78
